# maps each entry to its half-life at 20 μM
assay: in vitro; conditions: both, SD, rat, plasma (EDTA)
Bridge positions count the residues as written; N and C are the ends. Square brackets hold non-standard residues; d marks the D form. Peptide text beside a SMILES is read from it. Trp(7-Me) = Cc1cccc2c(C[C@H](N)C(=O)O)c[nH]c12; 2Nal = N[C@@H](Cc1ccc2ccccc2c1)C(=O)O; AEF = NCCOc1ccc(C[C@H](N)C(=O)O)cc1; Cit = NC(=O)NCCC[C@H](N)C(=O)O; Pen = CC(C)(S)[C@H](N)C(=O)O; αMeK = C[C@](N)(CCCCN)C(=O)O
property: half-life at 20 μM

{"columns": ["molecule", "assay-value"],
 "data": [
  ["CC(=O)NCCCC[C@H](NC(=O)[C@](C)(CC(C)C)NC(=O)[C@H](Cc1ccc2ccccc2c1)NC(=O)[C@H](Cc1ccc(OCCN)cc1)NC(=O)[C@H]1NC(=O)[C@H](CCC(N)=O)NC(=O)[C@H](Cc2c[nH]c3c(C)cccc23)NC(=O)[C@H]([C@@H](C)O)NC(=O)[C@H](CC(N)=O)NC(=O)[C@@H](NC(C)=O)C(C)(C)SSC1(C)C)C(=O)NCC(=O)NCCC(N)=O", "1 h"],
  ["CC(=O)NCCCC[C@H](NC(=O)[C@](C)(CCCCN)NC(=O)[C@H](Cc1ccc2ccccc2c1)NC(=O)[C@H](Cc1ccc(OCCN)cc1)NC(=O)[C@H]1NC(=O)[C@H](CCC(N)=O)NC(=O)[C@H](Cc2cn(C)c3ccccc23)NC(=O)[C@H]([C@@H](C)O)NC(=O)[C@H](CC(N)=O)NC(=O)[C@@H](NC(C)=O)C(C)(C)SSC1(C)C)C(=O)N[C@@H](CC(N)=O)C(=O)NCCC(N)=O", "> 24 h"],
  ["CC(=O)NCCCC[C@H](NC(=O)[C@](C)(CCCCN)NC(=O)[C@H](Cc1ccc2ccccc2c1)NC(=O)[C@H](Cc1ccc(OCCN)cc1)NC(=O)[C@H]1NC(=O)[C@H](CCCNC(N)=O)NC(=O)[C@H](Cc2c[nH]c3c(C)cccc23)NC(=O)[C@H]([C@@H](C)O)NC(=O)[C@H](CC(N)=O)NC(=O)[C@@H](NC(C)=O)C(C)(C)SSC1(C)C)C(=O)N[C@@H](CC(N)=O)C(=O)N[C@@H](Cc1ccc(O)cc1)C(N)=O [compound 266] (Ac-[Pen]NT[Trp(7-Me)][Cit][Pen][AEF][2Nal][αMeK]K(Ac)NY-NH2; disulfide 1-6)", "> 24 h"]
]}

====

test: in vitro; conditions: both, SD, rat, plasma (EDTA)
Bridge positions count the residues as written; N and C are the ends. Square brackets hold non-standard residues; d marks the D form. Peptide text beside a SMILES is read from it. Trp(7-Me) = Cc1cccc2c(C[C@H](N)C(=O)O)c[nH]c12; 2Nal = N[C@@H](Cc1ccc2ccccc2c1)C(=O)O; AEF = NCCOc1ccc(C[C@H](N)C(=O)O)cc1; Cit = NC(=O)NCCC[C@H](N)C(=O)O; Pen = CC(C)(S)[C@H](N)C(=O)O; αMeK = C[C@](N)(CCCCN)C(=O)O; Aib = CC(C)(N)C(=O)O

{"columns": ["compound", "half-life at 20 μM"],
 "data": [
  ["CC(=O)NCCCC[C@H](NC(=O)[C@](C)(CC(C)C)NC(=O)[C@H](Cc1ccc2ccccc2c1)NC(=O)[C@H](Cc1ccc(OCCN)cc1)NC(=O)[C@H]1NC(=O)[C@H](CCC(N)=O)NC(=O)[C@H](Cc2c[nH]c3c(C)cccc23)NC(=O)[C@H]([C@@H](C)O)NC(=O)[C@H](CC(N)=O)NC(=O)[C@@H](NC(C)=O)C(C)(C)SSC1(C)C)C(=O)N[C@H](Cc1ccccc1)C(=O)NCCC(N)=O", "< 18 min"],
  ["CC(=O)NCCCC[C@@H]1NC(=O)[C@H](Cc2c[nH]c3c(C)cccc23)NC(=O)[C@H]([C@@H](C)O)NC(=O)[C@H](CC(N)=O)NC(=O)[C@@H](NC(C)=O)C(C)(C)SSC(C)(C)[C@@H](C(=O)N[C@@H](Cc2ccc(OCCN)cc2)C(=O)N[C@@H](Cc2ccc3ccccc3c2)C(=O)N[C@@](C)(CCCCN)C(=O)N[C@@H](CCCCNC(C)=O)C(=O)NCCC(=O)NCCC(N)=O)NC1=O", "> 1440 min"],
  ["CC(=O)NCCCC[C@@H]1NC(=O)[C@H](Cc2c[nH]c3c(C)cccc23)NC(=O)[C@H]([C@@H](C)O)NC(=O)[C@H](CC(N)=O)NC(=O)[C@@H](NC(C)=O)C(C)(C)SSC(C)(C)[C@@H](C(=O)N[C@@H](Cc2ccc3ccccc3c2)C(=O)N[C@@H](Cc2ccc3ccccc3c2)C(=O)N[C@@](C)(CCCCN)C(=O)N[C@@H](CCCCNC(C)=O)C(=O)N[C@@H](CC(N)=O)C(=O)N[C@H](CC(C)C)C(N)=O)NC1=O [compound 289] (Ac-[Pen]NT[Trp(7-Me)]K(Ac)[Pen][2Nal][2Nal][αMeK]K(Ac)N[dL]-NH2; disulfide 1-6)", "> 1440 min"],
  ["CC(=O)NCCCC[C@H](NC(=O)[C@](C)(CCCCN)NC(=O)[C@H](Cc1ccc2ccccc2c1)NC(=O)[C@H](Cc1ccc(OCCN)cc1)NC(=O)[C@H]1NC(=O)[C@H](CCCNC(N)=O)NC(=O)[C@H](Cc2c[nH]c3c(C)cccc23)NC(=O)[C@H]([C@@H](C)O)NC(=O)[C@H](CC(N)=O)NC(=O)[C@@H](NC(C)=O)C(C)(C)SSC1(C)C)C(=O)N[C@@H](CC(N)=O)C(=O)NC(C)(C)C(N)=O [compound 264] (Ac-[Pen]NT[Trp(7-Me)][Cit][Pen][AEF][2Nal][αMeK]K(Ac)N[Aib]-NH2; disulfide 1-6)", "> 1440 min"],
  ["CC(=O)NCCCC[C@H](NC(=O)[C@](C)(CC(C)C)NC(=O)[C@H](Cc1ccc2ccccc2c1)NC(=O)[C@H](Cc1ccc(OCCN)cc1)NC(=O)[C@H]1NC(=O)[C@H](CCC(N)=O)NC(=O)[C@H](Cc2c[nH]c3c(C)cccc23)NC(=O)[C@H]([C@@H](C)O)NC(=O)[C@H](CC(N)=O)NC(=O)[C@@H](NC(C)=O)C(C)(C)SSC1(C)C)C(=O)N[C@@H](C)C(=O)NCCC(N)=O", "120 min"],
  ["CC(=O)NCCCC[C@H](NC(=O)[C@](C)(CC(C)C)NC(=O)[C@H](Cc1ccc2ccccc2c1)NC(=O)[C@H](Cc1ccc(OCCN)cc1)NC(=O)[C@H]1NC(=O)[C@H](CCC(N)=O)NC(=O)[C@H](Cc2c[nH]c3c(C)cccc23)NC(=O)[C@H]([C@@H](C)O)NC(=O)[C@H](CC(N)=O)NC(=O)[C@@H](NC(C)=O)C(C)(C)SSC1(C)C)C(=O)NCCC(=O)NCCC(N)=O", "480 min"],
  ["CC(=O)NCCCC[C@@H]1NC(=O)[C@H](Cc2c[nH]c3c(C)cccc23)NC(=O)[C@H]([C@@H](C)O)NC(=O)[C@H](CC(N)=O)NC(=O)[C@@H](NC(C)=O)C(C)(C)SSC(C)(C)[C@@H](C(=O)N[C@@H](Cc2ccc(OCCN)cc2)C(=O)N[C@@H](Cc2ccc3ccccc3c2)C(=O)N[C@@](C)(CCCCN)C(=O)N[C@@H](CCCCNC(C)=O)C(=O)N[C@@H](CC(N)=O)C(=O)N[C@@H](CCCNC(=N)N)C(N)=O)NC1=O", "1260 min"],
  ["CC(=O)NCCCC[C@@H]1NC(=O)[C@H](Cc2c[nH]c3c(C)cccc23)NC(=O)[C@H]([C@@H](C)O)NC(=O)[C@H](CC(N)=O)NC(=O)[C@@H](NC(C)=O)C(C)(C)SSC(C)(C)[C@@H](C(=O)N[C@@H](Cc2ccc(OCCN)cc2)C(=O)N[C@@H](Cc2ccc3ccccc3c2)C(=O)N[C@@](C)(CCCCN)C(=O)N[C@@H](CCCCNC(C)=O)C(=O)N[C@@H](CC(N)=O)C(=O)N[C@@H](Cc2c[nH]cn2)C(N)=O)NC1=O", "> 1440 min"],
  ["CC(=O)NCCCC[C@H](NC(=O)[C@](C)(CCCCN)NC(=O)[C@H](Cc1ccc2ccccc2c1)NC(=O)[C@H](Cc1ccc(OCCN)cc1)NC(=O)[C@H]1NC(=O)[C@H](CCCNC(N)=O)NC(=O)[C@H](Cc2c[nH]c3c(C)cccc23)NC(=O)[C@H]([C@@H](C)O)NC(=O)[C@H](CC(N)=O)NC(=O)[C@@H](NC(C)=O)C(C)(C)SSC1(C)C)C(=O)N[C@@H](CC(N)=O)C(=O)N[C@@H](CO)C(N)=O [compound 260] (Ac-[Pen]NT[Trp(7-Me)][Cit][Pen][AEF][2Nal][αMeK]K(Ac)NS-NH2; disulfide 1-6)", "> 1440 min"]
]}
